Experiment: ATG_M_61_CIS: Attagene CIS-FACTORIAL HepG2 Assay for M61 Transcription Factor (Internal Marker) (AID 2282937)
Conditions: HepG2 Attagene CIS-FACTORIAL M61 internal marker reporter; actives raise or lower the signal
Calls of active or inactive are those of the source. Rule for the calls: active = hit-call score of the fitted dose curve at least 0.9, where 1 is the maximum; inactive = score below 0.9.
observable: outcome

CC(=O)CC(=O)Nc1ccc(C)cc1C : inactive
CCCCCCCCC=CCCCCCCCC1=NCCN1CCO : inactive
CC(C)(N=C=O)c1cccc(C(C)(C)N=C=O)c1 : inactive
OCCc1ccccc1 : inactive
CCCC(C)=O : inactive

Incoming: Answer with the recorded outcome for the molecule listed here: CC=Cc1ccc(OCC)c(O)c1
Outgoing: inactive

Incoming: Answer with the recorded outcome for the molecule listed here: Nc1c(Cl)cc(Cl)cc1[N+](=O)[O-]
Outgoing: inactive

Incoming: Answer with the recorded outcome for the molecule listed here: CCOC(=O)COC(=O)c1cc(Oc2ccc(C(F)(F)F)cc2Cl)ccc1[N+](=O)[O-]
Outgoing: inactive

Incoming: Answer with the recorded outcome for the molecule listed here: COC(=O)c1ccc(C)cc1C1=NC(C)(C(C)C)C(=O)N1 (stereo unspecified) (tested in a mixture with another compound)
Outgoing: inactive

Incoming: Answer with the recorded outcome for the molecule listed here: Nc1c(S(=O)(=O)O)cc(Br)c2c1C(=O)c1ccccc1C2=O
Outgoing: inactive

###

Experiment: CCTE_Shafer_MEA_acute_synchrony_index: CCTE's Neural Acute Assay for Synchrony, Shafer Lab (AID 2284027);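 note: network synchrony index of spontaneous spiking in primary rat cortical neurons on MEAs; fitted for loss of signal so actives lower synchrony relative to DMSO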
The source made the active and inactive calls. How the source made its calls: active means hit-call score of the fitted dose curve at least 0.9, where 1 is the maximum; inactive means score below 0.9.
A correct response names exactly one class from YES = active, NO = inactive

Oc1c(Cl)cc(Cl)c(Cl)c1Cc1c(O)c(Cl)cc(Cl)c1Cl : YES
COCCc1ccc(OCC(O)CNC(C)C)cc1 (stereo not drawn) : NO
O=CN1CCOCC1 : NO
CC1(C)CCC[C@]2(C)[C@H]3CCO[C@]3(C)CC[C@@H]12 : NO
CCOC(=O)C(C#N)=C(c1ccccc1)c1ccccc1 : NO
CN(C)C(=S)SC(=S)N(C)C : NO
CCCCCCC(CO)CCCC (stereo not drawn) : YES

Here is another compound to look at.
Incoming: Entry CC(CN=Cc1ccccc1O)N=Cc1ccccc1O (stereo not drawn) : call = ?
Outgoing: NO

###

Test: CCTE_Deisenroth_5AR_NBTE_donor: CCTE's 5alpha-reductase NanoBRET Target Engagement Assay […], Deisenroth Lab (AID 2284319)
Conditions: actives raise or lower the signal
Active and inactive are the calls of the source. Rule for the calls: active = hit-call score of the fitted dose curve at least 0.9, where 1 is the maximum; inactive = score below 0.9.
A correct response names exactly one class from true (1) for active, false (0) for inactive

O=C(Nc1ccc2c(O)c(N=Nc3ccc(N=Nc4ccc(S(=O)(=O)O)cc4)cc3)c(S(=O)(=O)O)cc2c1)c1ccccc1 : true (1)
Nc1ccc(N)c2c1C(=O)c1ccccc1C2=O : false (0)
COc1ccc(N=Nc2cc(C)c(N=Nc3ccc(S(=O)(=O)O)cc3)cc2OC)cc1 : true (1)
Cc1ccc(S(=O)(=O)Oc2ccc(N=Nc3ccc(-c4ccc(N=Nc5c(O)ccc6cc(S(=O)(=O)O)cc(S(=O)(=O)O)c56)c(C)c4)cc3C)cc2)cc1 : false (0)

Incoming: Entry Cc1cc(S(=O)(=O)O)ccc1N=Nc1c(O)ccc2ccccc12 : call = ?
Outgoing: true (1)

Incoming: Entry CCCCCCCCCCCCCCN(CCO)CCO : call = ?
Outgoing: true (1)

Incoming: Entry CC(=O)O[C@H]1C[C@@H]2CC[C@@]1(C)C2(C)C : call = ?
Outgoing: false (0)

Incoming: Entry CCCCCCCC(=O)OCC(O)CO (stereo not given) : call = ?
Outgoing: false (0)

Incoming: Entry CC(CN=Cc1ccccc1O)N=Cc1ccccc1O (stereo not given) : call = ?
Outgoing: false (0)

Incoming: Entry Clc1ccc(C(c2ccccc2Cl)C(Cl)Cl)cc1 (stereo not given) : call = ?
Outgoing: false (0)

Cited source for all entries: PubChem BioAssay (EPA / NIEHS)
